Where these numbers come from: patent US20090280138A1

Molecular target: T1, MHC class I allele A*0201 (bound via biotin to streptavidin-coated plate)
T1 construct: iTopia MHC class I monomer on the plate; placeholder peptide and b2M removed, then reconstituted with test peptide and fresh b2M; also called A2; HLA A2
Assay: iTopia peptide binding assay
Observable: % of positive control peptide binding (%)
Number only, in %; omit the unit.

Task item: Entry AGAFEHLPS (also called Peptide No 68) [5T4 9 mer peptide 68 AGAFEHLPS] : reported % of positive control peptide binding = ?
Reply: 10

Task item: Entry VSSSSPTSS (also called Peptide No 15) [5T4 9 mer peptide 15 VSSSSPTSS] : reported % of positive control peptide binding = ?
Reply: 9

Task item: Entry SLRQLDLSH (also called Peptide No 72) [5T4 9 mer peptide 72 SLRQLDLSH] : reported % of positive control peptide binding = ?
Reply: 6

Task item: Entry PFAFSGSNA (also called Peptide No 80) [5T4 9 mer peptide 80 PFAFSGSNA] : reported % of positive control peptide binding = ?
Reply: 13

Task item: Entry RRLELASNH [5T4 9 mer peptide 107 RRLELASNH] : reported % of positive control peptide binding = ?
Reply: 5

Task item: Entry TEVPTDLPA (also called Peptide No 42) [5T4 9 mer peptide 42 TEVPTDLPA] : reported % of positive control peptide binding = ?
Reply: 7

Task item: Entry CSRGPAAGD (also called Peptide No 3) [5T4 9 mer peptide 3 CSRGPAAGD] : reported % of positive control peptide binding = ?
Reply: 3

Task item: Entry ASAVSAQPP (also called Peptide No 25) [5T4 9 mer peptide 25 ASAVSAQPP] : reported % of positive control peptide binding = ?
Reply: 5

Task item: Entry IVPPEDERQ (also called Peptide No 92) [5T4 9 mer peptide 92 IVPPEDERQ] : reported % of positive control peptide binding = ?
Reply: 12

Task item: Entry VPTDLPAYV (also called Peptide No 43) [5T4 9 mer peptide 43 VPTDLPAYV] : reported % of positive control peptide binding = ?
Reply: 29

Task item: Entry GMVVAALLA (also called Peptide No 99) [5T4 9 mer peptide 99 GMVVAALLA] : reported % of positive control peptide binding = ?
Reply: 71

Task item: Entry ILNHIVPPE (also called Peptide No 90) [5T4 9 mer peptide 90 ILNHIVPPE] : reported % of positive control peptide binding = ?
Reply: 63

Task item: Entry PAGAFARRP (also called Peptide No 54) [5T4 9 mer peptide 54 PAGAFARRP] : reported % of positive control peptide binding = ?
Reply: 4

Task item: Entry SSSPTSSAS (also called Peptide No 16) [5T4 9 mer peptide 16 SSSPTSSAS] : reported % of positive control peptide binding = ?
Reply: 7

Task item: Entry FLTGNQLAV (also called Peptide No 49) [5T4 9 mer peptide 49 FLTGNQLAV] : reported % of positive control peptide binding = ?
Reply: 90

Task item: Entry QCPALCECS (also called Peptide No 31) [5T4 9 mer peptide 31 QCPALCECS] : reported % of positive control peptide binding = ?
Reply: 2

Task item: Entry LAELAALNL (also called Peptide No 59) [5T4 9 mer peptide 59 LAELAALNL] : reported % of positive control peptide binding = ?
Reply: 63

Task item: Entry PALCECSEA (also called Peptide No 32) [5T4 9 mer peptide 32 PALCECSEA] : reported % of positive control peptide binding = ?
Reply: 19

Task item: Entry LPRDVLAQL [5T4 9 mer peptide 113 LPRDVLAQL] : reported % of positive control peptide binding = ?
Reply: 10

Task item: Entry AALNLSGSR (also called Peptide No 61) [5T4 9 mer peptide 61 AALNLSGSR] : reported % of positive control peptide binding = ?
Reply: 6

Task item: Entry RTVKCVNRN (also called Peptide No 37) [5T4 9 mer peptide 37 RTVKCVNRN] : reported % of positive control peptide binding = ?
Reply: 12

Task item: Entry NHIVPPEDE (also called Peptide No 91) [5T4 9 mer peptide 91 NHIVPPEDE] : reported % of positive control peptide binding = ?
Reply: 11

Task item: Entry LNLSGSRLD (also called Peptide No 62) [5T4 9 mer peptide 62 LNLSGSRLD] : reported % of positive control peptide binding = ?
Reply: 7

Task item: Entry PLADLSPFA (also called Peptide No 77) [5T4 9 mer peptide 77 PLADLSPFA] : reported % of positive control peptide binding = ?
Reply: 67

Task item: Entry SEAARTVKC (also called Peptide No 35) [5T4 9 mer peptide 35 SEAARTVKC] : reported % of positive control peptide binding = ?
Reply: 1

Task item: Entry PDQCPALCE (also called Peptide No 30) [5T4 9 mer peptide 30 PDQCPALCE] : reported % of positive control peptide binding = ?
Reply: 3

Task item: Entry MPGGCSRGP (also called Peptide No 1) [5T4 9 mer peptide 1 MPGGCSRGP] : reported % of positive control peptide binding = ?
Reply: 9

Task item: Entry APFLASAVS (also called Peptide No 23) [5T4 9 mer peptide 23 APFLASAVS] : reported % of positive control peptide binding = ?
Reply: 15

Task item: Entry VKCVNRNLT (also called Peptide No 38) [5T4 9 mer peptide 38 VKCVNRNLT] : reported % of positive control peptide binding = ?
Reply: 3

Task item: Entry RLDEVRAGA (also called Peptide No 65) [5T4 9 mer peptide 65 RLDEVRAGA] : reported % of positive control peptide binding = ?
Reply: 69

Task item: Entry EDERQNRSF (also called Peptide No 94) [5T4 9 mer peptide 94 EDERQNRSF] : reported % of positive control peptide binding = ?
Reply: 2

Task item: Entry SSAPFLASA (also called Peptide No 22) [5T4 9 mer peptide 22 SSAPFLASA] : reported % of positive control peptide binding = ?
Reply: 85
